testTarget: Serine/threonine-protein kinase TAO2 (Homo sapiens, UniProt Q9UL54); note: in the data inactive means no Kd found up to 30 µM
Sequence (Q9UL54 whole entry): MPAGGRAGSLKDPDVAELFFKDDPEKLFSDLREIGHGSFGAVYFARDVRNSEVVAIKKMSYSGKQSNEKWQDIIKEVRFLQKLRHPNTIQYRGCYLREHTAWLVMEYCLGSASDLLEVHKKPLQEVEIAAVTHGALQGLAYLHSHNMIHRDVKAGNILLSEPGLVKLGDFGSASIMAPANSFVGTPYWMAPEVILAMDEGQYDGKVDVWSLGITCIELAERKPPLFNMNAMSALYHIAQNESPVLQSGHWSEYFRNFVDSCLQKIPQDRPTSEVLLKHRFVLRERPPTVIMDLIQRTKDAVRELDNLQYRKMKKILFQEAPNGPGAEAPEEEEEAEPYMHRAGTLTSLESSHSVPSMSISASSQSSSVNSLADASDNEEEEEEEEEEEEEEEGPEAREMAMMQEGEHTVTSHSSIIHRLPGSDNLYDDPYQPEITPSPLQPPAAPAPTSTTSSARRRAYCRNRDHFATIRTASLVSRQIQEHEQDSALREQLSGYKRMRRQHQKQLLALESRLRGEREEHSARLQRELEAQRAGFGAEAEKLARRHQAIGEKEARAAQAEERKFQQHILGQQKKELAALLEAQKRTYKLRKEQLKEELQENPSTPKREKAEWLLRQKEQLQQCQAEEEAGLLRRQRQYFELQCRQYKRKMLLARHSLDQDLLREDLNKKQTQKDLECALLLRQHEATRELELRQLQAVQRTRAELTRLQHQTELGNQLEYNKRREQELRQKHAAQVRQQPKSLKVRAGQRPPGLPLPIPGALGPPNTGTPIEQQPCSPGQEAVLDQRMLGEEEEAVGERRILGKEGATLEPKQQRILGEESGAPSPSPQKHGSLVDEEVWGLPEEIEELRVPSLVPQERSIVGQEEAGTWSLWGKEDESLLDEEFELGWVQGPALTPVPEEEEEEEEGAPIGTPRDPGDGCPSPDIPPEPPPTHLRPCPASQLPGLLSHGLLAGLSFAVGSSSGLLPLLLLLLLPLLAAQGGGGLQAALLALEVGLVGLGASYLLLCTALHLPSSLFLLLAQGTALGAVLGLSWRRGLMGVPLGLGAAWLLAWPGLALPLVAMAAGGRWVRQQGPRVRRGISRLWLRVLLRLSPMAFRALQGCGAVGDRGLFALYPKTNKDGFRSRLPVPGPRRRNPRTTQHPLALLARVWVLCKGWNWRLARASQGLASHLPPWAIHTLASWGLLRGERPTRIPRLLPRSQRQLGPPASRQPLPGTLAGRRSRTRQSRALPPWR
Where a name gives a salt, the structure may show the parent alone. Activity calls are given as the source filed them.
Lab note: assign the record to one of active, inactive

Given "CC(C)c1cc(CNc2nc(Nc3cc(C4CC4)[nH]n3)cc(N3CCN(C)CC3)n2)on1" , state the outcome it received in this test.
inactive

Given "O=C(Nc1nc2cccc(-c3ccc(CN4CCS(=O)(=O)CC4)cc3)n2n1)C1CC1" , state the outcome it received in this test.
inactive

Given "NC(=O)c1c(OCc2c(F)cc(Br)cc2F)nsc1NC(=O)NCCCCN1CCCC1" , state the outcome it received in this test.
inactive

Given "CN1C/C=C/CCOc2cccc(c2)-c2ccnc(n2)Nc2cccc(c2)C1" , state the outcome it received in this test.
active

Given "CN1CCN(CCOc2cc(OC3CCOCC3)c3c(Nc4c(Cl)ccc5c4OCO5)ncnc3c2)CC1" , state the outcome it received in this test.
inactive

Given "O=C(Cc1ccc(-c2ccc(OCCN3CCOCC3)cc2)cn1)NCc1ccccc1" , state the outcome it received in this test.
inactive

Given "C[C@@H](NC(=O)c1ncnc(N)c1Cl)c1ncc(C(=O)Nc2cc(C(F)(F)F)c(Cl)cn2)s1" , state the outcome it received in this test.
inactive

Given "COCC(=O)NC/C=C/c1ccc2ncnc(Nc3ccc(Oc4ccc(C)nc4)c(C)c3)c2c1" , state the outcome it received in this test.
inactive

Given "O=C(Nc1c[nH]nc1-c1nc2cc(CN3CCOCC3)ccc2[nH]1)NC1CC1" , state the outcome it received in this test.
inactive

Given "CC(C)(C)c1nc(-c2cccc(NS(=O)(=O)c3c(F)cccc3F)c2F)c(-c2ccnc(N)n2)s1" , state the outcome it received in this test.
inactive

Given O=c1[nH]ccc2cc(OC3CCNCC3)ccc12 [SAR-407899 FREE BASE] , state the outcome it received in this test.
inactive

Given "Cn1cc(-c2cnn3c(N)c(Br)c([C@@H]4CCCNC4)nc23)cn1" , state the outcome it received in this test.
inactive

Given "COc1cc2c(Nc3ccc(Cl)c(Cl)c3F)ncnc2cc1OC[C@@H]1C[C@@H]2CN(C)C[C@@H]2C1" , state the outcome it received in this test.
inactive

Given "NC(=O)Nc1cc(-c2cccc(F)c2)sc1C(=O)N[C@H]1CCCNC1" , state the outcome it received in this test.
inactive

Given CCS(=O)(=O)N1CCN(c2ccc(Nc3ncc(C(N)=O)c(NC4CC4)n3)cc2)CC1 [Cerdulatinib Hydrochloride] , state the outcome it received in this test.
active

Given "Cc1csc(-c2nnc(Nc3ccc(Oc4ncccc4-c4ccnc(N)n4)cc3)c3ccccc23)c1" , state the outcome it received in this test.
inactive

Given "CNC(=O)c1cccc2cc(Oc3ccnc4cc(OCC5(N)CC5)c(OC)cc34)ccc12" , state the outcome it received in this test.
inactive

Given "Cc1nc(Nc2n[nH]c3c2CN(C(=O)N[C@H](CN(C)C)c2ccccc2)C3(C)C)c2sccc2n1" , state the outcome it received in this test.
inactive

Given "C=CC(=O)N1CCC[C@H](n2c(=O)n(-c3ccc(Oc4ccccc4)cc3)c3c(N)ncnc32)C1" , state the outcome it received in this test.
inactive

Given "FC(F)(F)c1ccc(/C=C/c2nc(COc3ccc(CCCCn4ccnn4)cc3)co2)cc1" , state the outcome it received in this test.
inactive

Given "CCCCCCCCCCCCCCCCCCOP(=O)([O-])OC1CC[N+](C)(C)CC1" , state the outcome it received in this test.
inactive

Given "O=C(Nc1cc(C(F)(F)F)cc(C(F)(F)F)c1)c1cc(Cl)ccc1O" , state the outcome it received in this test.
inactive

Given "Cc1nc2cc(-n3ncc(C(=O)c4cc5ccccc5[nH]4)c3N)ccc2[nH]1" , state the outcome it received in this test.
inactive

Given Cc1[nH]c(/C=C2\C(=O)Nc3ccccc32)c(C)c1CCC(=O)O [ORANTINIB] , state the outcome it received in this test.
inactive

Given "Cn1cc(-c2cnc3ccc4ccc(CS(=O)(=O)NCc5ccccn5)cc4c(=O)c3c2)cn1" , state the outcome it received in this test.
inactive

Given "COc1cc(Nc2ncc3c(n2)-c2ccc(Cl)cc2C(c2c(F)cccc2OC)=NC3)ccc1C(=O)O" , state the outcome it received in this test.
inactive

Given "Cc1nc(NC(=O)N2CCC[C@H]2C(N)=O)sc1-c1ccnc(C(C)(C)C(F)(F)F)c1" , state the outcome it received in this test.
inactive

Given "CCn1c(C(=O)N(C2CC2)C2CC2)cc2c3c(ncn3C)c(Nc3cc(C)n(C)n3)nc21" , state the outcome it received in this test.
inactive

Given "Cn1cnc2c(F)c(Nc3ccc(Br)cc3F)c(C(=O)NOCCO)cc21" , state the outcome it received in this test.
inactive

Given "C#Cc1cccc(Nc2ncnc3cc(OC)c(OCCCCCCC(=O)NO)cc23)c1" , state the outcome it received in this test.
inactive

Given "C[C@@H](N)c1ccc(C(=O)Nc2ccnc3[nH]ccc23)cc1" , state the outcome it received in this test.
inactive

Given "COc1c(OCCCN2CCOCC2)ccc2c1N=C(NC(=O)c1cnc(N)nc1)N1CCN=C21" , state the outcome it received in this test.
inactive

Given "NC1(c2ccc(-c3nc4ccn5c(=O)[nH]nc5c4cc3-c3ccccc3)cc2)CCC1" , state the outcome it received in this test.
inactive
